# assayTarget: T1, G200 N-terminal neo-epitope peptide GQPLQE-Acp-C (SEQ ID NO:50) conjugated to BSA (human, not fully specified (residue 8); printed as GQPLQE-Acp-C; also: C-terminal Cys conjugated to BSA carrier)
# T1 construct: also called G200-BSA peptide; G200-peptide
# T1 peptide: GQPLQE[Ahx]C
# protocol: second direct ELISA, G200-BSA peptide coated at 1 µg/ml
Non-standard residues stand in square brackets, D forms with d. No end group written: not given here. Ahx = NCCCCCC(=O)O
Task for the reader: assign each of the following binders its reported EC50.
All answers are understood in ng/mL, so give the number only.

The reported value for 4E6, recombinant IgG2c antibody (antibody, V domains shown, also called recombinant anti-G200 antibody 4E6) VH: EVQLVESGGDLVKPGGSLKLSCAASGFTFSSYAMSWVRQSPEKRLEWVAEISGSGSRDHYTDSVTGRFTVSRDNAKNTLYLEMSSLRSEDTAIYYCARQLTGTDYYGTDYWGQGTSVTVSS VL: DVLMTQIPLSLPVSLGDQASISCRSSQSIVYSNGNTYLEWYLQRPGQSPKLLIYKVSNRFSGVPDRFSGSGSGTDFTLKISRVEAEDLGVYYCFQGSHLPYTFGGGTKLEIK in terms of EC50 is 6.9

Record summary for 7B10, recombinant IgG2c antibody (antibody, V domains shown, also called 7610) VH: AVQLVESGGGLVKPGRSLKLSCAASGFTFSSYAMSWVRQFPDKRLDWVAEISSGGGSTNYLDTVTGRFTISRDNAKNTLYLEMNSLRSEDTAMYYCARQLVGTDYYGTDYWGQGTSVTVSS VL: DVLMTQTPLSLPVSLGDQASISCRSSQNIVYSNGNTYLEWYLQKPGQSPKLLIYKVSNRFSGVPDRFSGSGSGTDFTLKISRVEAEDLGVYYCFQGSHVPYTFGGGTKLEIK : reported EC50 = 7.3
